Molecular target: HLA-A*02:01_… (HLA-PEPTIDE target G8), soluble (human, enzymatically biotinylated (BirA) for screening and BLI)
Test: scFv PPE ELISA
// fold selective binding, target pHLA vs minipool of negative control pHLAs lookup, one value per entry

Below are worked cases with known answers.
BINDER: scFv G8-P1C11 (scFv, V domains shown, scFv) VH: QVQLVQSGAEVKKPGASVKVSCKASGGTLSSYPINWVRQAPGQGLEWMGWISTYSGHADYAQKLQGRVTMTRDTSTSTVYMELSSLRSEDTAVYYCARSYDYGDYLNFDYWGQGTLVTVSS VL: DIQMTQSPSSLSASVGDRVTITCQASQDISNYLNWYQQKPGKAPKLLIYAASSLQSGVPSRFSGSGSGTDFTLTISSLQPEDFATYYCQQSYSIPPTFGGGTKVDIK
EXPERIMENTAL_RESULT: ≥ 3 fold

BINDER: scFv G8-P1A04 (scFv, V domains shown, scFv) VH: QVQLVQSGAEVKKPGASVKVSCKASGYPFIGQYLHWVRQAPGQGLEWMGIINPSGDSATYAQKFQGRVTMTRDTSTSTVYMELSSLRSEDTAVYYCARDLSYYYGMDVWGQGTTVTVSS VL: DIQMTQSPSSLSASVGDRVTITCWASQGISSYLAWYQQKPGKAPKLLIYAASSLQSGVPSRFSGSGSGTDFTLTISSLQPEDFATYYCQQSYNTPWTFGPGTKVDIK
EXPERIMENTAL_RESULT: ≥ 3 fold

// switching to the query binder
QUERY: Quick check: fold selective binding, target pHLA vs minipool of negative control pHLAs of scFv G8-P1A06 (scFv, V domains shown, scFv) VH: QVQLVQSGAEVKKPGASVKVSCKASGYTFTNYYMHWVRQAPGQGLEWMGWMNPIGGGTGYAQKFQGRVTMTRDTSTSTVYMELSSLRSEDTAVYYCARVYDFWSVLSGFDIWGQGTLVTVSS VL: DIQMTQSPSSLSASVGDRVTITCRASQAISNSLAWYQQKPGKAPKLLIYAASTLQSGVPSRFSGSGSGTDFTLTISSLQPEDFATYYCGQSYSTPPTFGQGTKLEIK ?
RESULT: ≥ 3 fold
